# System: Trypanosoma brucei
# assay: Trypanosoma brucei 72 hour study
# Assay type: functional, organism-based
# Design: scale not given: in the data most compounds retested in dose-response had high values
# experimental.parameters: 30.3 µM; […]
Among all 66,000 compounds or so, about 960 (1.5%) showed an effect of 50% or more. The sample holds strong results, similar compounds and a random draw of the others, so the mix is not that of the screen.
readout.name: Percent Effect (%)
# number only, unit % dropped from output

// worked examples, Percent Effect included
molecule	value.reported
COc1ccccc1C1(CNCc2ccc(C#N)cc2)CCOCC1	29.93
CCN1CC(C(=O)N2CCN(c3nsc4ccccc34)CC2)CCC1=O (stereo not given)	18.26
Cc1cnn(C2CCCN(C(=O)Cc3c(C)nn(C)c3C)C2)c1 (stereo not given)	-16.8

(Q) Data request, read-out Percent Effect, for CC1CCC(N2Cc3nc(N)ncc3C2=O)CC1 (stereo not given)
(A) 59

(Q) Which value of Percent Effect has been reported for c1csc(CCNc2nc(-c3ccncc3)nc3c2CCNCC3)c1 in the records?
(A) 104

###

# Percent Effect per entry
# Tested on: Trypanosoma brucei
# assay: Trypanosoma brucei 72 hour study
# Assay type: functional, organism-based
# Parameters: scale not given: in the data most compounds retested in dose-response had high values
# experimental.parameters: 30.3 µM; […]
The campaign covered roughly 66,000 compounds. About 960 (1.5%) showed an effect of 50% or more. Only a selection was taken, and strong results are over-represented in it overall.

Observe how each entry below is paired with its result.
compound	Percent Effect
O=C(O)C(F)(F)F.O=C1CCCN1Cc1nnn2c1CN(c1cccnc1)CCC2	-14.81%
Cl.Cn1cc([C@@H]2CN(S(=O)(=O)c3ccccc3F)C[C@H]2N)c2ccncc21	53.59%

(Q) Return reported Percent Effect; argument: Cc1ccccc1SC1CCN(C(=O)C2CNC(=O)N2)CC1 (stereo not given)
(A) -1.493%

(Q) State the recorded Percent Effect for this entry: CCOc1ccc(N(C)Cc2nc(C)c(C)o2)cc1
(A) 96.05%

###

# Tested on: Trypanosoma brucei
# assay: Trypanosoma brucei 72 hour study
# Assay type: functional, organism-based
# Design: scale not given: in the data most compounds retested in dose-response had high values
# experimental.parameters: 30.3 µM; […]
Screen size: about 66,000 compounds; about 960 (1.5%) showed an effect of 50% or more. This excerpt belongs to a sample that is enriched for strong results.
Reported Percent Effect values for a set of molecules
Hi! Could you send only the number? It should be in %, unit omitted.

Some solved entries appear below for comparison.
molecule	reading.unit	Percent Effect
COc1ccc2c(c1)OC1(CCN(Cc3cccc(C)c3)CC1)CC2=O	%	-0.9536
Oc1cc(C2CCCN(Cc3cccs3)C2)nc(-c2ccccn2)n1 (stereo unspecified)	%	100.2
O=C1C[C@H]2CC[C@@H](CN1)N2C(=O)Cc1ccsc1	%	-6.652
O=C(O)C(F)(F)F.c1csc(CN2CCC3(CCOCC3COCC3CC3)CC2)n1 (stereo unspecified)	%	-46.34
COc1ccccc1NC(=O)NCCCn1nc2ccccn2c1=O	%	-15.65
Cc1nc(NCc2cccnc2)cc(C2COCCN2)n1 (stereo unspecified)	%	-2.285
Oc1cc(-c2nccs2)nc(C2CCN(Cc3cccs3)CC2)n1	%	-16.93
Cc1nc(Cc2ccc(F)cc2)cc(C2COCCN2)n1.Cl (stereo unspecified)	%	101
Oc1cc(C2CCCCN2Cc2ccsc2)nc(-c2ccncc2)n1 (stereo unspecified)	%	-12.11
CC1=C(C#N)C(=O)NC(=O)/C1=C\c1c(C)nn(-c2ccccc2)c1O	%	8.75

Pending molecule:
(Q) Which Percent Effect is listed for Cc1nc(NCc2ccc(F)cc2)cc(C2CCCN2)n1.Cl (stereo unspecified) ?
(A) -9.094
